- Test system: RXF 393
- Test Summary: NCI tumour cell line growth inhibition, 48 h
The source made the active and inactive calls. No stated cut-off is given here; in the data, active = GI50 up to about 1.1 µM and inactive = higher.
Endpoint Label: GI50

{"Compound": "O=C(CC1(O)C(=O)Nc2ccc([N+](=O)[O-])cc21)c1ccncc1 (stereo unspecified)", "Assay Result": "14.8 µM (inactive)"}
{"Compound": "CC1(C)C(=NNC(=S)NN)C(C)(C)C1=NNC(=S)NN", "Assay Result": "> 100 µM (inactive)"}
{"Compound": "C[N+](C)(C)CCN[N+]1(C)CCCc2ccccc21 (stereo unspecified)", "Assay Result": "36 µM (inactive)"}
{"Compound": "O=c1oc2ccc([N+](=O)[O-])cc2c(Nc2ccc3c(c2)Oc2ccccc2O3)c1[N+](=O)[O-]", "Assay Result": "56 µM (inactive)"}
{"Compound": "O=C(CC(=O)C1CCOC1=O)C(=O)Nc1ccc(Cl)cc1 (stereo unspecified)", "Assay Result": "> 100 µM (inactive)"}
{"Compound": "O=C1OC(O)C(Oc2ccc(Cl)cc2)=C1Cl (stereo unspecified)", "Assay Result": "> 100 µM (inactive)"}
{"Compound": "Cc1cc2c(cc1-c1cc3c(cc1C)C(C(C)C)=C(O)C(=O)/C3=C\\Nc1nc(-c3ccccc3)cs1)/C(=C/Nc1nc(-c3ccccc3)cs1)C(=O)C(O)=C2C(C)C", "Assay Result": "15.3 µM (inactive)"}
{"Compound": "COc1ccc(CN2CC(C)(C)C2=O)c(OC)c1", "Assay Result": "> 100 µM (inactive)"}
{"Compound": "c1ccc(NCn2cnc3ccccc32)cc1", "Assay Result": "> 100 µM (inactive)"}
{"Compound": "Cc1nc2ccc(F)cc2c(Cl)c1CCCl", "Assay Result": "21.7 µM (inactive)"}
{"Compound": "COc1nc(O)nc2c1C(c1ccc([N+](=O)[O-])cc1)c1c(OC)nc(O)nc1O2", "Assay Result": "> 100 µM (inactive)"}
{"Compound": "CCOC(=O)c1cn2c([nH]c3ccccc32)c(C#N)c1=O", "Assay Result": "> 100 µM (inactive)"}
{"Compound": "Cn1c(=S)c2nc(SCc3cccnc3)[nH]c2n(C)c1=O", "Assay Result": "> 100 µM (inactive)"}
{"Compound": "Cc1cc2c(c(C(=O)O)c1C)-c1cccc(F)c1C2=O", "Assay Result": "66.7 µM (inactive)"}
{"Compound": "O=C1NC(=O)C(C(CC(=O)c2ccc([N+](=O)[O-])cc2)c2ccccc2)C(=O)N1 (stereo unspecified)", "Assay Result": "2.77 µM (inactive)"}
{"Compound": "CN1CCN(c2ccc3nc(C4=C(O)C(=O)[C@@H]5C(=C4O)N=C(CO)N5C)[nH]c3n2)CC1", "Assay Result": "> 100 µM (inactive)"}
{"Compound": "C=CCOC1OC(CS(=O)(=O)O)C(O)C(O)C1O (stereo unspecified)", "Assay Result": "> 100 µM (inactive)"}
{"Compound": "O=C(CCCn1cnc([N+](=O)[O-])n1)NCCn1ccnc1[N+](=O)[O-]", "Assay Result": "> 100 µM (inactive)"}
{"Compound": "c1cc2cc3c4c5c(cc6ccc7cc8cc9c%10c8c8c7c6c5c8c5c%10c(c1C9N1CCOCCOCCOCCOCCOCC1)c2c45)C3 (stereo unspecified)", "Assay Result": "> 100 µM (inactive)"}
{"Compound": "COc1ccc(/N=C\\c2ccc(N(CCC#N)S(=O)(=O)c3ccccc3)cc2C)cc1", "Assay Result": "> 100 µM (inactive)"}
{"Compound": "COC(=O)N/N=C(\\C)C(CN1CCOCC1)C(c1ccccc1)c1cc2ccccc2oc1=O (stereo unspecified)", "Assay Result": "72.1 µM (inactive)"}

====

- System: HOP-18
- Test Summary: NCI tumour cell line growth inhibition, 48 h
Active and inactive are the calls of the source. No stated cut-off is given here; in the data, active = GI50 up to about 1.1 µM and inactive = higher.

{"Compound": "Nc1nc2sc3ccccc3c(=O)n2n1", "Tested Target": "HOP-18", "GI50": "> 100 µM (inactive)"}
{"Compound": "C[N+](C)(C)CCOC(=O)/C=C/c1c[nH]cn1", "Tested Target": "HOP-18", "GI50": "> 500 µM (inactive)"}
{"Compound": "CCOC(=O)/C(C#N)=C\\Sc1ccccc1", "Tested Target": "HOP-18", "GI50": "> 100 µM (inactive)"}
{"Compound": "O=C(O)c1cc2c(s1)C(=O)c1sccc1C2=O", "Tested Target": "HOP-18", "GI50": "5.52 µM (inactive)"}
{"Compound": "C=C(C(=C)N1N=NC2C3CCC(C3)C21)N1N=NC2C3CCC(C3)C21 (stereo unspecified)", "Tested Target": "HOP-18", "GI50": "> 100 µM (inactive)"}
{"Compound": "CC/C(=N/O)c1ccc2[nH]c3c(C)cc([N+](=O)[O-])c(C)c3c2c1", "Tested Target": "HOP-18", "GI50": "> 100 µM (inactive)"}

====

- Tested on: MDA-MB-435
- Test Summary: NCI tumour cell line growth inhibition, 48 h
Active and inactive are the calls of the source. No stated cut-off is given here; in the data, active = GI50 up to about 1.1 µM and inactive = higher.
GI50 values, listed per item

{"Compound": "NC(CC(O)(c1ccccc1)c1ccccc1)c1ccccc1S (stereo not given)", "GI50": "14.8 µM (inactive)"}
{"Compound": "Cc1ccc(C(C2C(=O)N(C)C(=O)N(C)C2=O)C(F)(F)C(=O)N(C)C)cc1 (stereo not given)", "GI50": "> 100 µM (inactive)"}
{"Compound": "COc1ccc(/C=N/NS(=O)(=O)c2ccc(/C=C3\\NC(=O)N(C)C3=O)cc2)cc1", "GI50": "> 100 µM (inactive)"}
{"Compound": "O=C1/C(=C/c2cccc([N+](=O)[O-])c2)N=C(c2ccccc2)N1c1nc2c(Cl)cc(Cl)cc2s1", "GI50": "20.8 µM (inactive)"}
{"Compound": "CC(C)(C)OC(=O)NC(CS(=O)(=O)O)C(=O)O (stereo not given)", "GI50": "> 100 µM (inactive)"}
{"Compound": "C=CCOC1OC(CO[Si](C)(C)C(C)(C)C)C(OCc2ccccc2)C(OCc2ccccc2)C1OCc1ccccc1 (stereo not given)", "GI50": "> 100 µM (inactive)"}
{"Compound": "CN(C)c1ccc(/C=C/C(=O)CC(=O)/C=C/c2ccc(N(C)C)cc2)cc1", "GI50": "> 100 µM (inactive)"}
{"Compound": "CCCCCC(C(O)C#N)C(O)(C(F)(F)F)C(F)(F)F (stereo not given)", "GI50": "> 10 µM (inactive)"}
{"Compound": "C=C(C)CN(CC#N)CC(=C)C", "GI50": "> 100 µM (inactive)"}
{"Compound": "COc1cc(-c2cc(=O)c3c(OC)c(OC)c(OC)c(OC)c3o2)c(OC)c(OC)c1OC", "GI50": "45.8 µM (inactive)"}

====

- Test system: NCI-H226
- Test Summary: NCI tumour cell line growth inhibition, 48 h
The source made the active and inactive calls. Rule as the data show it: active = GI50 up to about 1.1 µM and inactive = higher.
Outcome codes: label 1 = active, label 0 = inactive

{"Molecule": "O=C(O)c1ccc(O)c(/N=N/c2cc(S(=O)(=O)O)c3ccccc3c2O)c1", "Class Label": "label 0"}
{"Molecule": "COc1cccc(C2c3cc4c(cc3OC(C)(N3CCCC3)C2C)OCO4)c1O (stereo unspecified)", "Class Label": "label 0"}
{"Molecule": "CC(=O)OCC1(C)C(O)CCC2(C)C1CCC1CC3CC12CCC3(O)CO (stereo unspecified)", "Class Label": "label 0"}
{"Molecule": "N#CC(Sc1ccccc1)C(N)=O (stereo unspecified)", "Class Label": "label 0"}
{"Molecule": "CC1=C(C(=O)Nc2ccccc2C)C(c2ccccc2O)C(C(=O)Nc2ccccc2C)=C(C)N1", "Class Label": "label 0"}
{"Molecule": "CC1(C)CN(CC(=O)O)CC(Cc2ccc(OCC(=O)O)cc2)N(CC(=O)O)CC(C)(C)SS1 (stereo unspecified)", "Class Label": "label 0"}
{"Molecule": "C#CC1(O)CCCCCCCCC2(CCCCCCCC1)OCCO2", "Class Label": "label 0"}
{"Molecule": "Nc1ccc(C(=O)NN2C(=O)C(Cl)C2c2cccc(O)c2)cc1 (stereo unspecified)", "Class Label": "label 0"}
{"Molecule": "Cc1cc([N+](=O)[O-])ccc1NC(=O)C(=O)C(C(=O)c1ccccc1-c1ccccc1)C1OC(=O)c2ccccc21 (stereo unspecified)", "Class Label": "label 0"}
{"Molecule": "Nc1ccc(C(=O)/C=C/c2ccccc2O)cc1", "Class Label": "label 0"}
{"Molecule": "CC/C(=N/O)c1ccc2[nH]c3c(C)cc([N+](=O)[O-])c(C)c3c2c1", "Class Label": "label 0"}
{"Molecule": "COC(=O)C(=O)C(C(=O)C(=O)Nc1ccc(F)cc1)c1nc2ccc([N+](=O)[O-])cc2nc1O (stereo unspecified)", "Class Label": "label 0"}
{"Molecule": "C=C1C(=O)O[C@@H]2O[C@@]3(C)CC[C@H]4[C@H](C)CC[C@@H]1[C@@]24O3", "Class Label": "label 0"}
{"Molecule": "COC1CC(n2cnc3c(N)ncnc32)OC1CO (stereo unspecified)", "Class Label": "label 0"}
{"Molecule": "COc1ccc(CC2NCCc3cc(OC)c(OC)cc32)cc1 (stereo unspecified)", "Class Label": "label 0"}
{"Molecule": "C[C@]12CC[C@@H]3c4ccc(O)cc4CC[C@H]3[C@@H]1CC[C@@H]2OC(=O)CCc1ccccc1", "Class Label": "label 0"}
{"Molecule": "CC1CCC(C(C)C)C(OC(=O)NCn2cc(-c3ccccc3)nn2)C1 (stereo unspecified)", "Class Label": "label 0"}
{"Molecule": "COc1ccc2nc3c4c(nccc4c2c1)-c1ncccc1C3=O", "Class Label": "label 1"}
{"Molecule": "C1CSCCSCCSCCSC1", "Class Label": "label 0"}
{"Molecule": "CCN(CC)CCOc1ccc(C(O)(Cc2ccc(OC)cc2)c2ccccc2)cc1 (stereo unspecified)", "Class Label": "label 0"}
{"Molecule": "CN(C)CCNC1=Nc2ccccc2C(=O)N2CSCC12 (stereo unspecified)", "Class Label": "label 0"}
